Source: patent US20220275534A1

Listed substances paired with reported MALDI-TOF-MS peak intensity, Number of additions 1
Tested on: KgpF
Sequence (as listed by the source): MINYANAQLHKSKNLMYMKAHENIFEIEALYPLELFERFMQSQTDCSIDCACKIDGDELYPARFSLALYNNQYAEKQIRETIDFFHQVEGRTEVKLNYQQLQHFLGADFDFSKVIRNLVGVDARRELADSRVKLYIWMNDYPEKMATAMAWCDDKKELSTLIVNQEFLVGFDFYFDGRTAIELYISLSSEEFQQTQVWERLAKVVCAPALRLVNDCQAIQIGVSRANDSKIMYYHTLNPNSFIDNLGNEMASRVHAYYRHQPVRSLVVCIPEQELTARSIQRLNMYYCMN
Test: Prenylation of artificial cyclic peptides with 160 μM KgpF at 0° C., 20 hours (Conditions 13/14 and 19/20; Examples 10, 14, 19; Tables 6 and 18)
Format: biochemical, Microcystis aeruginosa
Design: key: 5: strong intensity; 4: medium intensity; 3: weak intensity; 2: very weak intensity; 1: no peak; N/A: not observed
Conditions: Table 6; 160 μM KgpF, 2 mM DMAPP, 0° C., 20 hours; 1 prenyl added
Non-standard residues stand in square brackets, D forms with d. No end group written: not given here.
Kindly provide the number alone.

[
  {
    "substance": "Clone-M3: artificial cyclic peptide containing a plurality of Trps (Ac-[dY]SWSPAWVRQADIC; thioether (positions not given here); not fully specified (bridges))",
    "readout.number": 1
  }
]

MALDI-TOF-MS peak intensity, Number of additions 1 for Clone-M1: artificial cyclic peptide containing a plurality of Trps ([dY]LRLNHTWSTWTSC; thioether (positions not given here); not fully specified (N-terminus, bridges); also: cyclic) is 1
